Test: Drug-drug interaction study Part 1: plasma PK after 20 mg mitapivat sulfate alone or with itraconazole
Type: in vivo, human
Conditions: both sexes, human; plasma; 20 mg mitapivat sulfate oral alone (Reference); healthy subjects; read-out: AUC0-t, Geometric LSM
So I've got a bunch of compounds here, and I need their AUC(0-t) values.
Give the number; ng·h/mL is assumed, so skip it.

Exercise: Recorded AUC(0-t) for O=C(c1ccc(NS(=O)(=O)c2cccc3cccnc23)cc1)N1CCNCC1 [Metabolite] , please?
Solution: 197

Exercise: One more compound: `O=C(c1ccc(NS(=O)(=O)c2cccc3cccnc23)cc1)N1CCN(CC2CC2)CC1`
Solution: 1880

###

So I've got a bunch of molecules here, and I need their AUC(0-inf) values.
Test: Drug-drug interaction study Part 2: plasma PK after 50 mg mitapivat sulfate alone or with rifampin
Type: in vivo, human
Conditions: both sexes, human; plasma; 50 mg mitapivat sulfate oral alone (Reference); healthy subjects; read-out: AUC0-inf, Geometric LSM
Protocol: Twenty-eight (28) healthy, adult male and female (non-childbearing potential) subjects were enrolled in the study in total; 14 subjects in each study part (Parts 1 and 2). A minimum of 8 female subjects were enrolled in the study (i.e., a minimum of 4 female subjects per study part). Each subject participated in either Part 1 or Part 2, but not both. On Day 1 of Treatment Period 1, a single oral dose of 50 mg mitapivat sulfate was administered. […]

Exercise: Recorded AUC(0-inf) for `O=C(c1ccc(NS(=O)(=O)c2cccc3cccnc23)cc1)N1CCN(CC2CC2)CC1` , please?
Solution: 5680 ng·h/mL

Exercise: One more molecule: O=C(c1ccc(NS(=O)(=O)c2cccc3cccnc23)cc1)N1CCNCC1 [Metabolite]
Solution: 663 ng·h/mL

###

So I've got a bunch of compounds here, and I need their Cmax values.
Experiment: Drug-drug interaction study Part 1: plasma PK after 20 mg mitapivat sulfate alone or with itraconazole
Type: in vivo, human
Conditions: both sexes, human; plasma; 20 mg mitapivat sulfate oral alone (Reference); healthy subjects; read-out: Cmax, Geometric LSM
Give the number; ng/mL is assumed, so skip it.

Exercise: Recorded Cmax for `O=C(c1ccc(NS(=O)(=O)c2cccc3cccnc23)cc1)N1CCN(CC2CC2)CC1` , please?
Solution: 412

Exercise: One more compound: O=C(c1ccc(NS(=O)(=O)c2cccc3cccnc23)cc1)N1CCNCC1 [Metabolite]
Solution: 18.8

###

So I've got a bunch of compounds here, and I need their AUC(0-t) values.
Test: Drug-drug interaction study Part 1: plasma PK after 20 mg mitapivat sulfate alone or with itraconazole
Format: in vivo, human
Conditions: both sexes, human; plasma; 20 mg mitapivat sulfate oral on Day 5 + 200 mg itraconazole QD Days 1-9 (Test); healthy subjects; read-out: AUC0-t, Geometric LSM
Give the number; ng·h/mL is assumed, so skip it.

Exercise: Recorded AUC(0-t) for `O=C(c1ccc(NS(=O)(=O)c2cccc3cccnc23)cc1)N1CCN(CC2CC2)CC1` , please?
Solution: 8860

Exercise: One more compound: O=C(c1ccc(NS(=O)(=O)c2cccc3cccnc23)cc1)N1CCNCC1 [Metabolite]
Solution: 300

###

So I've got a bunch of molecules here, and I need their Cmax values.
Assay: Drug-drug interaction study Part 2: plasma PK after 50 mg mitapivat sulfate alone or with rifampin
Assay type: in vivo, human
Settings: both sexes, human; plasma; 50 mg mitapivat sulfate oral alone (Reference); healthy subjects; read-out: Cmax, Geometric LSM
Give the number; ng/mL is assumed, so skip it.

Exercise: Recorded Cmax for O=C(c1ccc(NS(=O)(=O)c2cccc3cccnc23)cc1)N1CCNCC1 [Metabolite] , please?
Solution: 53.8

Exercise: One more molecule: `O=C(c1ccc(NS(=O)(=O)c2cccc3cccnc23)cc1)N1CCN(CC2CC2)CC1`
Solution: 1260
